Could you please report measured pIC50 for the items listed next?
# test system: SARS-CoV-2 nsp13 helicase (Severe acute respiratory syndrome coronavirus 2, UniProt P0DTD1)
# assay info: biochemical
# Assay type: biochemical
# condition context: IC50 0.02% Tween-20 + (presence)
Numbers only, as −log10 of the molar value.

The examples below pair each entry with its known result.
{"molecule": "Cc1ccc(C(=O)Nc2ccc(S(=O)(=O)O)c3cc(S(=O)(=O)O)cc(S(=O)(=O)O)c23)cc1NC(=O)c1cccc(NC(=O)Nc2cccc(C(=O)Nc3cc(C(=O)Nc4ccc(S(=O)(=O)O)c5cc(S(=O)(=O)O)cc(S(=O)(=O)O)c45)ccc3C)c2)c1 [Suramin]", "test readout": "pIC50", "result": 5.80}
{"molecule": "COc1ccc(-c2ccc3cc(C(=O)O)ccc3c2)cc1C12CC3CC(CC(C3)C1)C2 [Adapalene]", "test readout": "pIC50", "result": 5.26}
{"molecule": "CCCCCCCC/C=C\\CCCCCCCC(=O)O [Oleic acid]", "test readout": "pIC50", "result": 3.93}

Hello, I would appreciate it if you could give pIC50 for each entry below.
1. CC(C)c1cc(C(C)C)c(CC(=O)NS(=O)(=O)Oc2c(C(C)C)cccc2C(C)C)c(C(C)C)c1 [Avasimibe]
2. CCCCC/C=C\C/C=C\CCCCCCCC(=O)O [Linoleic acid]
3. CC(C)(C[C@H]1CN(S(=O)(=O)c2cccc(C(F)(F)F)c2)c2cc(-c3cc(F)cc(OC(F)F)c3)ccc2O1)C(=O)O [Cintirorgon]
4. CC(C)(Sc1ccc(CCN(CCCCC2CCCCC2)C(=O)NC2CCCCC2)cc1)C(=O)O [GW7647]
5. COc1cc(C(=O)O)ccc1NC(=O)[C@@H]1N[C@@H](CC(C)(C)C)[C@](C#N)(c2ccc(Cl)cc2F)[C@H]1c1cccc(Cl)c1F [Idasanutlin]
6. Cc1cc2c(C(C)C)c(O)c(O)c(C=O)c2c(O)c1-c1c(C)cc2c(C(C)C)c(O)c(O)c(C=O)c2c1O [Gossypol]

1. 4.77
2. 4.44
3. 4.39
4. 4.60
5. 4.96
6. 4.51

Can you share its pIC50? I mean this molecule: COc1cc(C(=O)NS(=O)(=O)c2ccccc2C)ccc1Cc1cn(C)c2ccc(NC(=O)OC3CCCC3)cc12 [Zafirlukast]
4.30
